Tested on: D54 ERlucT glycosylation luciferase reporter, luminescence, 24 h
MEASUREMENT DESCRIPTION: N-linked glycosylation inhibitors, luciferase reporter, dose response, D54 ERlucT cells, luminescence, cherry-picks (AID 624491);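 note: signal gain reflects blocked N-linked glycosylation of a luciferase reporter; actives raise luciferase signal so AC26 marks activators of the reporter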
OBSERVED PROPERTY: AC26

These solved cases illustrate the format of a correct answer.
Cc1ccc2c(CC(=O)NCc3ccco3)coc2c1C : 7.38 µM
O=C(c1[nH]c(C(F)(F)F)nc1-c1ccccc1)N1CCN(c2ccccc2)CC1 : 0.395 µM
COCCCNC(=O)Cc1c(C)c2c(cc(C)c3c(C(C)(C)C)coc32)oc1=O : 1.51 µM

Look up AC26: CCOc1ncccc1C(=O)Nc1cc2c(cc1Br)OCCO2
7.78 µM

Record: NNC(=O)c1oc2nc(-c3cccs3)cc(-c3ccco3)c2c1N
2.64 µM

Record: c1ccc(CNc2nc(NCCc3ccncc3)c3sccc3n2)cc1
1.12 µM

Record: NC(=O)c1cccc(-c2coc3c(C(=O)NCc4ccccc4)cccc23)c1
4.07 µM

Record: COc1cc2c(cc1OC)C(c1ccccc1)N(C(=O)c1ccccc1)CC2 (centres undefined)
0.869 µM

Record: C[C@@H](NC(=O)c1nc[nH]c1C(=O)N1CCN(c2ccccc2)CC1)c1ccccc1
2.11 µM

Record: C(=C\c1nccc2c1[nH]c1ccccc12)/c1ccccc1
4.68 µM

Record: N#Cc1cc2[nH]c3ccccc3c2[n+](-c2ccc([N+](=O)[O-])cc2)c1N
4.41 µM

Record: c1ccc(Cc2nnc(Sc3ccccc3)c3ccccc23)cc1
5.17 µM

Record: COc1ccc(NC(=O)C(=O)NCC2CCCN2S(=O)(=O)c2cccs2)cc1 (centres undefined)
5.02 µM

Record: COc1ccc(/C=N\NC(=O)c2ccccc2F)cc1COc1ccc(F)cc1F
3.55 µM

* * *

Reported AC26 is given for each of the following compounds.
System: D54 ERlucT glycosylation luciferase reporter, luminescence, 24 h
MEASUREMENT DESCRIPTION: N-linked glycosylation inhibitors, luciferase reporter, dose response, D54 ERlucT cells, luminescence, cherry-picks (AID 624491)

These solved cases illustrate the format of a correct answer.
CCN(CC)S(=O)(=O)c1cc(NC(=O)Cn2ncc(Cl)c(Cl)c2=O)ccc1C : 1.03 µM
CCOC(=O)c1cnc2c(ccc3ccccc32)c1NCCCN(C)C : 2.05 µM
C#CC[N+](C)(C)CCCCCCCCC : 6.07 µM

Look up AC26: Cc1ccc2nc(SCc3nnc(-c4ccccc4[N+](=O)[O-])o3)c(C#N)cc2c1
5.79 µM

Record: COc1cc(OC)c(C2=NOC(C(=O)NCc3cccs3)C2)cc1Cl (stereo not given)
5.25 µM

Record: Oc1ccc(Nc2nc(N3CCCC3)c3ccccc3n2)cc1
0.335 µM

Record: CCN(CC)CCCNc1cc(C)c(C#N)c2nc3ccccc3n12
17 µM

Record: O=C(Cn1cnc2c(NCc3ccccc3)ncnc21)NCc1ccccc1
1.76 µM

Record: C=C(C)[C@@]12OC3(c4ccccc4)O[C@@H]1C1[C@@H]4O[C@]4(CO)[C@@H](O)[C@]4(O)C(=O)C(C)=C[C@H]4[C@@]1(O3)[C@H](C)[C@H]2OC(=O)/C=C/C=C/c1ccccc1 (stereo not given in full)
< 0.0012 µM

Record: O=C(N/N=C/c1ccccc1)c1sccc1OCc1ccc(F)cc1
2.6 µM

Record: CC(C)(C)c1ccc(C(=O)O/N=C(\N)Cc2cccs2)cc1
11.8 µM

Record: Cc1[nH]nc2c1C(c1cccc(O)c1)C1=C(CC(C)(C)CC1=O)N2 (stereo not given)
1.87 µM

Record: COc1ccc(N2CCc3c(C)nc4c(OC)cc(OC)cc4c32)cc1
3.77 µM

Record: COc1cc(-c2cnc3c(NC(C)=O)cc(-c4ccccc4CN(C)C)cn23)cc(OC)c1OC
2.65 µM

Record: COc1ccc2nc3c(cc2c1)c(NC(=O)CC(C)C)nn3CC(C)C
8.1 µM

Record: O=C(NCCCN1CCOCC1)c1cc(-c2cccs2)on1
3.67 µM

* * *

Test system: D54 ERlucT glycosylation luciferase reporter, luminescence, 24 h
MEASUREMENT DESCRIPTION: N-linked glycosylation inhibitors, luciferase reporter, dose response, D54 ERlucT cells, luminescence, cherry-picks (AID 624491)
OBSERVED PROPERTY: AC26

Cc1cc(C)cc(NC(=O)CCn2c(=O)c3cccn3c3ccccc32)c1 : 4.95 µM
CCNC(=O)c1cc2c(=O)n3cccc(C)c3nc2n(CCc2ccccc2)c1=N : 1.52 µM
CCN1C(=O)c2cccc3c(S(=O)(=O)Nc4ccccc4OC)ccc1c23 : 4.24 µM

Look up AC26: Cc1cc(Sc2ccc([N+](=O)[O-])cn2)ccc1Br
6.94 µM

* * *

Test system: D54 ERlucT glycosylation luciferase reporter, luminescence, 24 h
MEASUREMENT DESCRIPTION: N-linked glycosylation inhibitors, luciferase reporter, dose response, D54 ERlucT cells, luminescence, cherry-picks (AID 624491)
The source made the active and inactive calls.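 How the source made its calls: active means fitted curve crossing a set activation limit at or below the highest valid dose tested; inconclusive means flat fit at 30 to 70% activation, or poor fit; inactive means the rest, including signal decreases.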
Tick one outcome: active, inactive

Solved cases (4 shown):
CCc1nn2c(N(C)CCO)cc(C)nc2c1-c1ccc(F)cc1 : active
CCN(CC)c1ccc(/C=C2\C(=O)N(c3nnc(C)c(=O)[nH]3)N=C2C)cc1 : active
Cc1ccc(C)c(NC(=S)NC(NC(=O)Cc2cccc3ccccc23)C(Cl)(Cl)Cl)c1 (stereo not drawn) : active
Cc1cccc2cc(/C=C/C(=O)c3ccco3)c(Cl)nc12 : active

Next item in the queue.
Hey, what did the test say about O=C1c2cccc3cccc(c23)C(=O)N1CC1CCN(CC(O)COCc2ccc3c(c2)OCO3)CC1 (stereo not drawn) ?
inactive

* * *

Test system: D54 ERlucT glycosylation luciferase reporter, luminescence, 24 h
MEASUREMENT DESCRIPTION: N-linked glycosylation inhibitors, luciferase reporter, dose response, D54 ERlucT cells, luminescence, cherry-picks (AID 624491);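 note: signal gain reflects blocked N-linked glycosylation of a luciferase reporter; actives raise luciferase signal so AC26 marks activators of the reporter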
OBSERVED PROPERTY: AC26

These solved cases illustrate the format of a correct answer.
Cc1cccn2c(=O)c3cc(C(=O)NC4CCCC4)c(=N)n(CC4CCCO4)c3nc12 (centres undefined) : 8180 nM
COc1ccc(/C=C2\SC(=O)N(CCNC(=O)C3=COCCO3)C2=O)cc1 : 658 nM
CC1CN(C(=O)c2cc(-c3ccncc3)nc3ccccc23)CC(C)O1 (centres undefined) : 2020 nM
COc1ccc(CCCC(=O)NCc2ccccc2)cc1C : 6540 nM
COc1cc(OC)c2c(-c3cccc(-c4ccoc4)c3)cc(=O)oc2c1 : 7640 nM
COc1cc2c(cc1OC)C(=O)N1[C@H]3c4cc(C)ccc4OC[C@@H]3[C@H](c3ccccc3)[C@]1(C)C(=O)N2 : 387 nM
COc1ccc(CCn2c(=N)c(C(=O)NCC3CCCO3)cc3c(=O)n4cccc(C)c4nc32)cc1 (centres undefined) : 575 nM
CC1CN(C(=O)c2ccc(COc3ccc4ccccc4c3)o2)CC(C)O1 (centres undefined) : 11200 nM

Consider the additional molecule presented here.
Look up AC26: CCOC(=O)c1c(C)nc2sc3c(=O)n(-c4ccc(C)cc4)cnc3c2c1-c1ccc(OC)cc1
116 nM

* * *

Reported AC26 is given for each of the following molecules.
Test system: D54 ERlucT glycosylation luciferase reporter, luminescence, 24 h
MEASUREMENT DESCRIPTION: N-linked glycosylation inhibitors, luciferase reporter, dose response, D54 ERlucT cells, luminescence, cherry-picks (AID 624491);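 note: signal gain reflects blocked N-linked glycosylation of a luciferase reporter; actives raise luciferase signal so AC26 marks activators of the reporter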

These solved cases illustrate the format of a correct answer.
O=C(NCCc1ccccc1)c1coc(=O)c(Br)c1 : 1.53 µM
CCOc1cc(C(=O)Nc2ccc(N3CCOCC3)cc2)cc(Br)c1OC : 2.77 µM
O=C(NCc1ccccc1)C(=O)NCC1COc2ccccc2O1 (centres undefined) : 13 µM

Consider the additional molecule presented here.
Look up AC26: CC(=O)Nc1cccc(-c2ccnc3c2CC(C(=O)NCc2cccc(Cl)c2)O3)c1 (centres undefined)
9.22 µM

* * *

Tested on: D54 ERlucT glycosylation luciferase reporter, luminescence, 24 h
MEASUREMENT DESCRIPTION: N-linked glycosylation inhibitors, luciferase reporter, dose response, D54 ERlucT cells, luminescence, cherry-picks (AID 624491);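 note: signal gain reflects blocked N-linked glycosylation of a luciferase reporter; actives raise luciferase signal so AC26 marks activators of the reporter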
OBSERVED PROPERTY: AC26

Cc1ccc(C2=NN(C(=O)CSc3nccn3C)C(c3ccco3)C2)cc1 (stereo not given) : 6070 nM
COc1ccc(C(=O)NCC(c2ccco2)N2CCc3ccccc32)cc1 (stereo not given) : 2300 nM
O=C(C=Cc1ccccc1O)c1ccccc1O : 2850 nM

Look up AC26: COc1cc(-c2coc3c(C(=O)NCc4ccc(OC)c(OC)c4)cccc23)ccc1O
1220 nM

Record: COc1cc(-c2nnc(SCC3(c4ccc(Br)cc4)OCCO3)o2)cc(OC)c1OC
210 nM

Record: CC(C)CC(NC(=O)c1ccc(Cl)cc1)C(=O)OCC(=O)c1ccc2c(c1)NC(=O)CO2 (stereo not given)
4090 nM

Record: Cc1ccc(Oc2ccc(S(=O)(=O)N3CCOCC3)cc2C(N)=O)c(-n2nc3ccccc3n2)c1
2770 nM

Record: Cc1ccc(-c2cnc(C3CC3)o2)cc1S(=O)(=O)Nc1ccccc1
9070 nM

Record: CN(C)CCNC(=O)c1cccc2nc3c(ccc4ccccc43)nc12
719 nM

Record: CCOC(=O)C(C)Oc1cccc2c(=O)n(CC(=O)NCc3ccc(F)cc3)ccc12 (stereo not given)
1720 nM

Record: O=C(C=Cc1ccccn1)c1ccccc1O
1250 nM

Record: O=C(Nc1cccc(NC(=O)c2cccs2)c1)c1ccc([N+](=O)[O-])o1
1820 nM

Record: O=C1CCCC2=C1C1(CCCCC1)N=C(Nc1nc3ccccc3o1)N2
5790 nM

Record: CC(=O)Nc1cc(-c2cccc(C(=O)N(C)C)c2)cn2c(-c3cccc(C(=O)N(C)C)c3)cnc12
897 nM

Record: O=C1[C@H]2[C@@H](c3ccc(F)cc3)N3C(=O)N(c4cccc(Cl)c4)C(=O)[C@@]3(Cc3ccccc3)[C@H]2C(=O)N1C1CCCCC1
16.4 nM

Record: O=C(NCCCn1ccnc1)c1cc(-c2cccs2)on1
3430 nM
